- procedure-summary: Electroshock (ECS) induced retrograde amnesia, passive avoidance test
- Format: in vivo, NMRI mice
- test-context: 10 mg/kg p.o., 2 hours after learning; * marks significance
Each entry below carries its recorded Prevention %.
Give the quantity in %, number only.

>>> reported_value("O=C1CC2(CCN(Cc3ccc(F)cc3)CC2)Oc2ccccc21 [Compound 4610282]")
29
>>> reported_value("O=C1CC2(CCN(Cc3ccc(Cl)cc3)CC2)Oc2ccccc21 [Compound 4610351]")
108
>>> reported_value("O=C1CC2(CCN(Cc3ccccc3)CC2)Oc2ccccc21 [Compound 4600592]")
44

Turning now to a further record.
The recorded Prevention % for entry O=C1CC2(CCN(Cc3ccc([N+](=O)[O-])cc3)CC2)Oc2ccccc21 [Compound 4610350] equals 8
